TARGET UNDER TEST: Human GLP-1 receptor (Homo sapiens, UniProt P43220)
Construct: expressed in transfected cells
Sequence (P43220 24-463): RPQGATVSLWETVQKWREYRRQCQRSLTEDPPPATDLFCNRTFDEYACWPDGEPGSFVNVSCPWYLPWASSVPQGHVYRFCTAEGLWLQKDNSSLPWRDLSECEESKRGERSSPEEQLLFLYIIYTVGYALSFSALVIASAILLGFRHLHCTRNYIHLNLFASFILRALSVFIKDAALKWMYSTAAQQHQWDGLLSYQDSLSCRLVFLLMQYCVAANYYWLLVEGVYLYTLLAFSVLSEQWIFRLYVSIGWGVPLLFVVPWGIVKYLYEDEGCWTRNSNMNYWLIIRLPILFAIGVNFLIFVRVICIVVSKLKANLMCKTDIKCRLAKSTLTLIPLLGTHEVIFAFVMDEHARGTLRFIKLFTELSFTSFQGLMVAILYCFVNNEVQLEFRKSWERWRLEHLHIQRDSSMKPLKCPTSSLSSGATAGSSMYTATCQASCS
ASSAY METHOD TEXT: Measurement of GLP-1 receptor agonist activity (cAMP assay);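 as to pEC50: EC50 of cAMP increase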
Type: cell-based
MEASUREMENT CONTEXT: hGLP-1R/CHO-K1 cells, cAMP increase, 37° C. 1 hour
Let's look at some molecules and their measured pEC50.
Units for pEC50: none; it is -log10 of a concentration expressed in mol/L.

Cn1nnc2cc(COc3cc4c(cc3C(F)(F)F)CCN(Cc3nc5ccc(C(=O)O)cc5n3C[C@@H]3CCO3)C4)ccc21 [Compound I-072] = 7.90

Query block: Which value of pEC50 has been reported for O=C(O)c1ccc2nc(CN3CCc4cc(C(F)(F)F)c(OCc5ccccc5OC(F)F)cc4C3)n(C[C@@H]3CCO3)c2c1 [Compound I-152] in the records?
Result block: 8.23

----------
Emax values by entry
TARGET UNDER TEST: Human GLP-1 receptor (Homo sapiens, UniProt P43220)
Construct: expressed in transfected cells
ASSAY METHOD TEXT: Measurement of GLP-1 receptor agonist activity (cAMP assay)
Type: cell-based
MEASUREMENT CONTEXT: CHO-K1, maximum effect, cAMP increase in GLP-1 R/CHO-K1 cells; 2 nM human GLP-1 (7-36) = 100%, DMSO only = 0%; read-out: Emax
Note: unit % is implicit; provide only the numeric part.

COc1cc(Cl)ccc1COc1nc2c(cc1C(F)(F)F)CCN(Cc1nc3c(F)cc(C(=O)O)cc3n1C[C@@H]1CCO1)[C@H]2C [Compound I-367] = 107
C[C@H]1c2cc(OCc3ccc(C4CC4)cc3)c(Cl)cc2CCN1Cc1nc2c(F)cc(C(=O)O)cc2n1C[C@@H]1CCO1 [Compound I-333] = 116
C[C@H]1c2nc(OCc3c(F)cc(F)cc3F)c(C(F)(F)F)cc2CCN1Cc1nc2c(F)cc(C(=O)O)cc2n1C[C@@H]1CCO1 [Compound I-371] = 122
C[C@H]1c2nc(OCc3ccc(F)cc3F)c(C(F)(F)F)cc2CCN1Cc1nc2ccc(C(=O)O)c(F)c2n1C[C@@H]1CCO1 [Compound I-359] = 123
C[C@H]1c2nc(OCc3ccc(F)cc3)c(C(F)(F)F)cc2CCN1Cc1nc2ccc(C(=O)O)c(F)c2n1C[C@@H]1CCO1 [Compound I-308] = 115
O=C(O)c1ccc2nc(CN3CCc4cc(C(F)(F)F)c(OCc5ccc(F)cc5F)nc4C3)n(C[C@@H]3CCO3)c2c1 [Compound I-268] = 108
COc1cc(C(=O)O)cc2c1nc(CN1CCc3cc(C(F)(F)F)c(OCc4ccc(F)cc4F)nc3[C@@H]1C)n2C[C@@H]1CCO1 [Compound I-282] = 114
COc1cc(C(=O)O)cc2c1nc(CN1CCc3cc(C(F)(F)F)c(OCc4c(F)cc(Cl)cc4F)cc3[C@@H]1C)n2C[C@@H]1CCO1 [Compound I-237] = 102
COc1cc(Cl)ccc1COc1nc2c(cc1C(F)(F)F)CCN(Cc1nc3c(F)cc(C(=O)O)cc3n1C[C@@H]1CCO1)C2 [Compound I-382] = 125
C[C@H]1c2nc(OCc3ccc(Cl)cc3F)c(I)cc2CCN1Cc1nc2ccc(C(=O)O)cc2n1C[C@@H]1CCO1 [Compound I-393] = 121

Query block: Lab request: please report Emax under test system Human GLP-1 receptor (Homo sapiens, UniProt P43220) for N#Cc1ccc(COc2nc3c(cc2C(F)(F)F)CCN(Cc2nc4ccc(C(=O)O)c(F)c4n2C[C@@H]2CCO2)C3)c(F)c1 [Compound I-300]
Result block: 112

Query block: Moving on to COc1ccc(COc2nc3c(cc2C(F)(F)F)CCN(Cc2nc4c(F)cc(C(=O)O)cc4n2C[C@@H]2CCO2)[C@H]3C)cc1 [Compound I-364]
Result block: 118

Query block: Another compound to look at: C[C@H]1c2nc(OCc3cc(F)c(Cl)cc3F)c(C(F)(F)F)cc2CCN1Cc1nc2c(F)cc(C(=O)O)cc2n1C[C@@H]1CCO1 [Compound I-246]
Result block: 120

Query block: // query: C[C@H]1c2nc(OCc3ccc(Cl)cc3F)ccc2CCN1Cc1nc2ccc(C(=O)O)cc2n1C[C@@H]1CCO1 [Compound I-395]
Result block: 89.7

Query block: Next up: COc1cc(Cl)ccc1COc1nc2c(cc1C(F)(F)F)CCN(Cc1nc3ccc(C(=O)O)nc3n1C[C@@H]1CCO1)[C@H]2C [Compound I-350]
Result block: 113

Query block: Consider next the compound COc1cc(C(=O)O)cc2c1nc(CN1CCc3cc(C(F)(F)F)c(OCc4ccc(Cl)cc4F)nc3[C@@H]1C)n2C[C@@H]1CCO1 [Compound I-274] in the same way.
Result block: 120

----------
TARGET UNDER TEST: Human GLP-1 receptor (Homo sapiens)
Construct: expressed in transfected cells
ASSAY METHOD TEXT: Measurement of GLP-1 receptor agonist activity (cAMP assay)
Type: cell-based
MEASUREMENT CONTEXT: CHO-K1, maximum effect, cAMP increase in GLP-1 R/CHO-K1 cells; 2 nM human GLP-1 (7-36) = 100%, DMSO only = 0%; read-out: Emax
Emax listing for selected compounds.
The answer is to be given in %; state only the numeric part.

COc1cc(C(=O)O)cc2c1nc(CN1CCc3cc(C(F)(F)F)c(OCc4ccc(Cl)cc4)cc3[C@@H]1C)n2C[C@@H]1CCO1 = 112
C[C@H]1c2cc(OCc3ccc(Cl)cc3)c(Cl)cc2CCN1Cc1nc2ccc(C(=O)O)c(F)c2n1C[C@@H]1CCO1 = 95.3
C[C@H]1c2nc(OCc3cc(F)c(Cl)cc3F)c(C(F)(F)F)cc2CCN1Cc1nc2ccc(C(=O)O)nc2n1C[C@@H]1CCO1 = 113
COc1cc(C(=O)O)cc2c1nc(CN1CCc3cc(C(F)(F)F)c(OCc4ccccc4Cl)cc3[C@@H]1C)n2C[C@@H]1CCO1 = 109
COc1cc(C(=O)O)cc2c1nc(CN1CCc3cc(C(F)(F)F)c(OCc4ccc(C)cc4)nc3C1)n2C[C@@H]1CCO1 = 122

Please look at the following compound next.
Query block: Give the measured Emax of `COc1cc(C(=O)O)cc2c1nc(CN1CCc3cc(C(F)(F)F)c(OCc4ccc(C)cc4)nc3[C@@H]1C)n2C[C@@H]1CCO1` .
Result block: 122

----------
Recorded measurements of Emax, one per entry
TARGET UNDER TEST: Human GLP-1 receptor (Homo sapiens)
Construct: expressed in transfected cells
ASSAY METHOD TEXT: Measurement of GLP-1 receptor agonist activity (cAMP assay)
Assay type: cell-based
MEASUREMENT CONTEXT: CHO-K1, hGLP-1R/CHO-K1 cells, cAMP; 100% = human GLP-1 (7-36) at 2 nM, 0% = DMSO only; read-out: Emax(%)
Value expressed in %; do not type the unit.

C[C@H]1c2cc(OCc3ccccc3Cl)c(C(F)(F)F)cc2CCN1Cc1nc2ccc(C(=O)O)c(F)c2n1C[C@@H]1CCO1 = 119
C[C@H]1c2cc(OCc3ccc(Cl)cn3)c(C(F)(F)F)cc2CCN1Cc1nc2c(F)cc(C(=O)O)cc2n1C[C@@H]1CCO1 = 104

Query block: What measured Emax goes with `COc1cc(F)c(COc2cc3c(cc2C(F)(F)F)CCN(Cc2nc4ccc(C(=O)O)cc4n2C[C@@H]2CCO2)C3)c(F)c1` ?
Result block: 104

----------
Below, each entry is listed with its recorded Emax.
TARGET UNDER TEST: Human GLP-1 receptor (Homo sapiens)
Construct: expressed in transfected cells
ASSAY METHOD TEXT: Measurement of GLP-1 receptor agonist activity (cAMP assay)
Format: cell-based
MEASUREMENT CONTEXT: CHO-K1, hGLP-1R/CHO-K1 cells, cAMP; 100% = human GLP-1 (7-36) at 2 nM, 0% = DMSO only; read-out: Emax(%)
Put your answer as a value accompanied by its unit after it.

Solved entries (count: 3):
O=C(O)c1ccc2nc(CN3CCc4cc(C(F)(F)F)c(OCc5ccc(Cl)c(F)c5)cc4C3)n(C[C@@H]3CCO3)c2c1 = 120%
C[C@H]1c2cc(OCc3ccc(C#N)cc3)c(C(F)(F)F)cc2CCN1Cc1nc2ccc(C(=O)O)cc2n1C[C@@H]1CCO1 = 126%
COc1cc(C(=O)O)cc2c1nc(CN1CCc3cc(C(F)(F)F)c(OCc4ccc(Cl)cc4F)cc3C1)n2C[C@@H]1CCO1 = 119%

Query block: Looking for the measured Emax of `C[C@H]1c2cc(OCc3ccc(OC(F)F)cc3F)c(C(F)(F)F)cc2CCN1Cc1nc2ccc(C(=O)O)cc2n1C[C@@H]1CCO1` , can you help?
Result block: 104%

Query block: Try `O=C(O)c1ccc2nc(CN3CCc4cc(C(F)(F)F)c(OCc5ccccc5OC(F)F)cc4C3)n(C[C@@H]3CCO3)c2c1` next.
Result block: 111%

Query block: Can you check `CCn1ccc(COc2cc3c(cc2C(F)(F)F)CCN(Cc2nc4ccc(C(=O)O)cc4n2C[C@@H]2CCO2)C3)n1` next?
Result block: 95%
